System: KB
Experimental Details: Cytotoxicity against human KB cells assessed as inhibition of cell growth by measuring effective dose
Format: functional
Applied Conditions: read-out: ED50 (the source's name)
Quantity Kind: EC50 (µg/mL)
Numbers only, in µg/mL.

[
  {
    "Molecule": "CCCCC[C@H]1CCCCCCCCCC(=O)O[C@@H]2[C@@H](O[C@@H]3O[C@H](C)[C@@H](OC(=O)[C@@H](C)CC)[C@H](O)[C@H]3O)[C@H](C)O[C@@H](O[C@H]3[C@H](O[C@H]4[C@H](O1)O[C@H](C)[C@@H](O)[C@@H]4O)O[C@H](COC(=O)[C@@H](C)CC)[C@@H](O)[C@@H]3O)[C@@H]2OC(=O)[C@@H](C)[C@H](C)O [ORIZABIN XIX]",
    "EC50 (µg/mL)": 1
  }
]

Now look at this one.
Tell us which EC50 value is on record for C/C=C(\C)C(=O)O[C@H]1[C@H](O)[C@@H](O)[C@H](O[C@@H]2[C@H]3OC(=O)CCCCCCCCC[C@H](CCCCC)O[C@@H]4O[C@H](C)[C@@H](O)[C@H](O)[C@H]4O[C@@H]4O[C@H](COC(=O)[C@@H](C)CC)[C@@H](O)[C@H](O)[C@H]4O[C@H](O[C@H]2C)[C@@H]3OC(=O)[C@@H](C)[C@H](C)O)O[C@@H]1C [ORIZABIN XV] 1
